- TARGET_OF_ASSAY: T1, human LILRB2 expressed on cells (human, UniProt Q8N423 22-597)
- T1 construct: In 293T cells it was expressed from pCMV3-LILRB2-GFP; also called CHO-LILRB2; Jurkat-LILRB2
- PROTOCOL_DESCRIPTION: flow cytometry on CHO-LILRB2 cells, non-linear fit of the curves of FIG. 26B
PROPERTY_LABEL: EC50 (µg/mL)
Express the result in µg/mL but write the number alone.

Recorded results for 2 binders are shown here.
For reference, reported EC50 for D2M002-126 (antibody, V domains shown, Humanized and optimized variant of D2M002-026) VH: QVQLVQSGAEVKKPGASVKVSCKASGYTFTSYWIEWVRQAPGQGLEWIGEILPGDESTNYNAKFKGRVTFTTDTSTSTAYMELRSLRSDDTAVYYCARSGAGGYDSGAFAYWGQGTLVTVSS VL: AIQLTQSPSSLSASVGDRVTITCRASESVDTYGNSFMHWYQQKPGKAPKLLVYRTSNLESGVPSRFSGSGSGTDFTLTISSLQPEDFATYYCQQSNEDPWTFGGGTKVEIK stands at 0.206

For reference, reported EC50 for D2M002-103HV1 (antibody, V domains shown, Humanized and optimized variant of the D2M002-002 lineage) VH: QVQLVQSGAEVKKPGASVKVSCKASGYTFTRYVMHWVRQAPGQRLEWIGYINPNNEETKYSQKFKGRVTLTRDTSASTAYMELSSLRSEDTAVYYCARADLEILPYYDHARYAMDYWGQGTLVTVSS VL: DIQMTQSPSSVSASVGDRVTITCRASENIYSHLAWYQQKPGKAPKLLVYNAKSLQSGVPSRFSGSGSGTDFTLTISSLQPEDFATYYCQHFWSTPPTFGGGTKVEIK stands at 0.0599

Continue with the binder presented below.
For reference, reported EC50 for D2M002-002 (antibody, V domains shown, Hit from immunised mice; also called clone #2; anti-LILRB1/2 clone #2) VH: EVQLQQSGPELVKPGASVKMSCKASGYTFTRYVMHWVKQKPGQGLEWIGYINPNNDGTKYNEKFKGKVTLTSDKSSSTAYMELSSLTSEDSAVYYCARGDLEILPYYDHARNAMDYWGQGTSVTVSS VL: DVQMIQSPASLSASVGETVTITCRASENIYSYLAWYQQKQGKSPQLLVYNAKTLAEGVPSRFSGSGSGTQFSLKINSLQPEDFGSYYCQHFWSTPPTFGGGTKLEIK stands at 0.128
